Where do these numbers come from? They come from patent US6620837B1.

Experiment: Volume of distribution (VD) after oral dosing, pharmacokinetic model
Assay type: in vivo, dog
Conditions: VD=Clearance/K; Clearance=Dose/AUC following oral dosing; compounds of the invention
Structures can show the parent of a compound that is named as a salt.
Binary call on VD with cut-off 1 L/kg: strictly below means label 1, and equality or higher means label 0.

Worked set:
{"Molecule": "NC(=O)CCCOc1cc(-c2sc3ccccc3c2Cc2ccc(OCCN3CCCC3=O)cc2)ccc1OCCN1CCCC1 [Example 8, Oxalate]", "Assigned class": "label 0"}
{"Molecule": "O=C([O-])CCCOc1ccc(-c2sc3ccccc3c2Cc2ccc(OCCN3CCCC3)cc2)cc1C(=O)[O-].[Na+].[Na+]", "Assigned class": "label 1"}
{"Molecule": "COC(=O)CCCOc1ccc(-c2sc3ccccc3c2Cc2ccc(OCCN3CCCC3)cc2)cc1C(N)=O [Example 4, Oxalate Salt]", "Assigned class": "label 0"}
{"Molecule": "O=C([O-])c1cc(-c2sc3ccccc3c2Cc2ccc(OCCN3CCCC3)cc2)ccc1OCCN1CCCC1.[Na+]", "Assigned class": "label 0"}

Now take the following molecule into account.
hey, is VD for `O=C([O-])CCCOc1cc(-c2sc3ccccc3c2C(=O)c2ccc(OCCN3CCCC3=O)cc2)ccc1OCCN1CCCC1.[Li+]` lower than 1 L/kg or not?
label 0
